system_name: PfTopoVIB (topoisomerase VIB subunit of PfTopoVI) (Plasmodium falciparum)
Construct: full-length Myc-tagged PfTopoVIB co-expressed with Flag-tagged PfTopoVIA in S. cerevisiae, cell-free extract; with PfTopoVIA (PF3D7_1217100.1)
Sequence (Q8ID53 1-561): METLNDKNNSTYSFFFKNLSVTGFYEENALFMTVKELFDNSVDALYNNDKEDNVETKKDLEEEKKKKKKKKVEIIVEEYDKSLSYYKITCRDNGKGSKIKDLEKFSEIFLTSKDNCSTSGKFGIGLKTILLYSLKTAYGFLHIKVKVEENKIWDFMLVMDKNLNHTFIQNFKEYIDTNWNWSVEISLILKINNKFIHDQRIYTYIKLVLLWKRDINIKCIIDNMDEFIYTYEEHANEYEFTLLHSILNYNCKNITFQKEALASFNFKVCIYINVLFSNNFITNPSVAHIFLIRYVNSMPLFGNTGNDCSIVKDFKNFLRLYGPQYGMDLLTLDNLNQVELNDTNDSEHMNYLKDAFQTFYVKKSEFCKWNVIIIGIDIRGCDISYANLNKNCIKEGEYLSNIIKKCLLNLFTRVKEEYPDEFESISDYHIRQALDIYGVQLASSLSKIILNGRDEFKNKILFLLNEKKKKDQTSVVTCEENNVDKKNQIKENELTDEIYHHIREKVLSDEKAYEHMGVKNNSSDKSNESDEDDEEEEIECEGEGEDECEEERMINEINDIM
Sequence (Q8I5N7 1-327 partner): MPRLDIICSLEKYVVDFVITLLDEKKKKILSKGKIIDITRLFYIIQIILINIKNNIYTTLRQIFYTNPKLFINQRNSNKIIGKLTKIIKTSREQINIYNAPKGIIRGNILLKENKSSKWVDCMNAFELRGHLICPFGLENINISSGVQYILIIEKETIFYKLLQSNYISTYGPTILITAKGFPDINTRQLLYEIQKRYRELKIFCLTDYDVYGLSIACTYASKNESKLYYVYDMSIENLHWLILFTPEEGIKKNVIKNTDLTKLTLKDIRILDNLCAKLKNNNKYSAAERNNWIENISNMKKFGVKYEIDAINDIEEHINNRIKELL
protocol_text: kDNA decatenation gel assay with yeast cell extract expressing PfTopoVIB-VIA
pIC50: −log10 of the molar value.
test_readout: pIC50

Problem: What measured pIC50 is associated with "C[C@@H]1C[C@H]2O[C@@H]2/C=C\C=C\C(=O)Cc2c(Cl)c(O)cc(O)c2C(=O)O1" on PfTopoVIB (topoisomerase VIB subunit of PfTopoVI) (Plasmodium falciparum)?
Result: ~4.10
